TGT: Neuronal acetylcholine receptor subunit alpha-7 (Rattus norvegicus)
Sequence (Q05941 whole entry): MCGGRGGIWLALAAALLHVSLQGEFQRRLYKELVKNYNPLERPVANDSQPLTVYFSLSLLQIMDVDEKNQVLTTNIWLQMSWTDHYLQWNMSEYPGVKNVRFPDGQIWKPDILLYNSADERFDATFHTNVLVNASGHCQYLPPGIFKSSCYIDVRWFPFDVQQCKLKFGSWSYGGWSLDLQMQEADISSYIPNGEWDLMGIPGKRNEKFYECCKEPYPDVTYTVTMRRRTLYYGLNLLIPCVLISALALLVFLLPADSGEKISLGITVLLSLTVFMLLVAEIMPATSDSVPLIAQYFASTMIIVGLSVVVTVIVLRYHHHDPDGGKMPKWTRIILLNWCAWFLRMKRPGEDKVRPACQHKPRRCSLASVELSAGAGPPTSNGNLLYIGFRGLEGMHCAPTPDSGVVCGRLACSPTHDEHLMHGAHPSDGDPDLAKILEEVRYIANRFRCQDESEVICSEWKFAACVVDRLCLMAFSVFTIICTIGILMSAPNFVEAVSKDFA
MEASUREMENT_NOTES: Inhibition of [125I]alpha-bungarotoxin binding to rat nicotinic acetylcholine receptor alpha7
Form field: Ki (one value per entry).
Give the figure together with its unit, number first.

Before answering, review these 5 worked examples.
Ask: Identify Ki associated with the compound CC(C)c1ccc(N2C[C@@]3(CN4CCC3CC4)OC2=O)s1
Reply: 65 nM

Ask: Give me measured Ki, please, for this compound: CC(O)c1ccc(N2C[C@@]3(CN4CCC3CC4)OC2=O)s1 (some centres not stated)
Reply: 145 nM

Ask: # return recorded Ki for input O=C1O[C@]2(CN3CCC2CC3)CN1c1cc2ccccc2o1
Reply: 370 nM

Ask: Provide measured Ki value, entry: O=C1O[C@]2(CN3CCC2CC3)CN1c1cc2ccccc2s1
Reply: 75 nM

Ask: Supply measured Ki of O=C1O[C@]2(CN3CCC2CC3)CN1c1ccc2ccccc2c1 in your reply.
Reply: 31 nM

More entries:
Ask: Please look at this compound and report its Ki: O=C1O[C@@]2(CN3CCC2CC3)CN1c1ccc2ccccc2c1
Reply: 205 nM

Ask: Return Ki for the following compound: O=C1O[C@]2(CN3CCC2CC3)CN1c1ccc(Br)s1
Reply: 4 nM

Ask: Provide Ki value for the following compound: COc1ccc(/C=C2\CCCN=C2c2cccnc2)c(OC)c1
Reply: 220 nM

Ask: Provide measured Ki value, entry: O=C1O[C@]2(CN3CCC2CC3)CN1c1cccs1
Reply: 80 nM

Ask: Identify Ki associated with the compound N#Cc1ccc(N2C[C@@]3(CN4CCC3CC4)OC2=O)s1
Reply: 85 nM

Ask: For the compound CCc1ccc(N2C[C@@]3(CN4CCC3CC4)OC2=O)s1 , give its reported Ki.
Reply: 21 nM

Ask: Fill in Ki for record Cc1ccc(N2C[C@@]3(CN4CCC3CC4)OC2=O)s1
Reply: 12 nM
